# maps each entry to its inhibition at 30 µM
Assay target: NP-1 (Homo sapiens)
Sequence (O14786 22-923): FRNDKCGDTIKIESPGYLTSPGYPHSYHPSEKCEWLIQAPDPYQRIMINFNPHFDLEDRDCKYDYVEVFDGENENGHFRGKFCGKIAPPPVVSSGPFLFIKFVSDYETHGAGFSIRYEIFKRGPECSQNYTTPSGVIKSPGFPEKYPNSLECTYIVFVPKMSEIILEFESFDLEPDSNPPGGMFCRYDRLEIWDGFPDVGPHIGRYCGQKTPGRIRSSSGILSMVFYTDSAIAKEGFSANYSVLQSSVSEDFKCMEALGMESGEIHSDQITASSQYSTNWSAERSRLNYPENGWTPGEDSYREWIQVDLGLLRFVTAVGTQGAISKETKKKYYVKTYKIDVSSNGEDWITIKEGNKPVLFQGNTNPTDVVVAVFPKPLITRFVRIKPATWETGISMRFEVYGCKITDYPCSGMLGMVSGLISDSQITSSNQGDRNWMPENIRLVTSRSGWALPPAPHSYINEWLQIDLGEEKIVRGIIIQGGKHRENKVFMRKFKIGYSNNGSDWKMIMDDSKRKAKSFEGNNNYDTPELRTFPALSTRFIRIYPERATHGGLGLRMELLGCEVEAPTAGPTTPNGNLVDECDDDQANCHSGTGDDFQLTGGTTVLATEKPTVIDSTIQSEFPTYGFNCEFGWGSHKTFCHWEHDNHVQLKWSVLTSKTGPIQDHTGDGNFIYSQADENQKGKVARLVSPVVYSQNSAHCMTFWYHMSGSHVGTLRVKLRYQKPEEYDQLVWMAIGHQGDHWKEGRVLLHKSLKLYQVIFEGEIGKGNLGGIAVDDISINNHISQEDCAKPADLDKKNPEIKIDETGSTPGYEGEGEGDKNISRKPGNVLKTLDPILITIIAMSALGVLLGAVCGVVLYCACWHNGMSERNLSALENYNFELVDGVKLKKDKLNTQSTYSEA
Protocol description: Biotinylated-VEGF-A165 (bt-VEGF-A165) binding to NP-1
Protocol conditions: 30 μM compound, read-out: Screen (% inhibition at 30 μM)
Measurement kind: inhibition at 30 µM (%)

- Compound structure string: "N=C(N)NCCC[C@H](NC(=O)c1sccc1NS(=O)(=O)c1cc(-c2cccc(CN3CCN(Cc4cccnc4)CC3)c2)cc2c1OCC2)C(=O)O"
  Measured value: 98
- Compound structure string: "N=C(N)NCCC[C@H](NC(=O)c1sccc1NS(=O)(=O)c1cc(-c2ccccc2CN2CCC(N3CCOCC3)CC2)cc2c1OCC2)C(=O)O"
  Measured value: 100
- Compound structure string: "N=C(N)NCCC[C@H](NC(=O)c1sccc1NS(=O)(=O)c1cccc(NCc2csc(N3CCC(N)CC3)n2)c1)C(=O)O"
  Measured value: 92
- Compound structure string: "N=C(N)NCCC[C@H](NC(=O)c1sccc1NS(=O)(=O)c1cccc(NCc2csc(C(=O)O)n2)c1)C(=O)O"
  Measured value: 83
- Compound structure string: "N=C(N)NCCC[C@H](NC(=O)c1sccc1NS(=O)(=O)c1cccc(NCc2csc(N3CCOCC3)n2)c1)C(=O)O"
  Measured value: 91
- Compound structure string: "N=C(N)NCCC[C@H](NC(=O)c1sccc1NS(=O)(=O)c1cc(-c2cccc(CN3CCNCC3)c2)cc2c1OCC2)C(=O)O"
  Measured value: 100
- Compound structure string: "N=C(N)NCCC[C@H](NC(=O)c1sccc1NS(=O)(=O)c1cccc(NCc2csc(C3CCNCC3)n2)c1)C(=O)O"
  Measured value: 89
- Compound structure string: "N=C(N)NCCC[C@H](NC(=O)c1sccc1NS(=O)(=O)c1cc(-c2ccccc2CN2CCN(c3ccccn3)CC2)cc2c1OCC2)C(=O)O"
  Measured value: 100
- Compound structure string: "N=C(N)NCCC[C@H](NC(=O)c1sccc1NS(=O)(=O)c1cc(-c2cccc(CN3CCN(c4ccncc4)CC3)c2)cc2c1OCC2)C(=O)O"
  Measured value: 100
- Compound structure string: "N=C(N)NCCC[C@H](NC(=O)c1sccc1NS(=O)(=O)c1cc(-c2ccccc2CN2CCN(c3ccncc3)CC2)cc2c1OCC2)C(=O)O"
  Measured value: 97
- Compound structure string: "Cn1cncc1CNCc1ccccc1-c1cc2c(c(S(=O)(=O)Nc3ccsc3C(=O)N[C@@H](CCCNC(=N)N)C(=O)O)c1)OCC2"
  Measured value: 97
- Compound structure string: "N=C(N)NCCC[C@H](NC(=O)c1sccc1NS(=O)(=O)c1cccc(NCc2csc(N3CCN(c4cccnc4)CC3)n2)c1)C(=O)O"
  Measured value: 95
- Compound structure string: "N=C(N)NCCC[C@H](NC(=O)c1sccc1NS(=O)(=O)c1cc(-c2cccc(CN3CCC(N)CC3)c2)cc2c1OCC2)C(=O)O"
  Measured value: 94

---

Assay target: NP-1 (Homo sapiens)
pIC50: −log10 of the molar value.

- Compound structure string: "COC(=O)C1CCN(Cc2cccc(-c3cc4c(c(S(=O)(=O)Nc5ccsc5C(=O)N[C@@H](CCCNC(=N)N)C(=O)O)c3)OCC4)c2)CC1"
  pIC50: 8.30
- Compound structure string: "N=C(N)NCCC[C@H](NC(=O)c1sccc1NS(=O)(=O)c1cc(-c2ccccc2CN2CCN(Cc3ccncc3)CC2)cc2c1OCC2)C(=O)O"
  pIC50: 5.74
- Compound structure string: "N=C(N)NCCC[C@H](NC(=O)c1sccc1NS(=O)(=O)c1cc(-c2cccc(CNCc3ccccn3)c2)cc2c1OCC2)C(=O)O"
  pIC50: 6.98
- Compound structure string: "N=C(N)NCCC[C@H](NC(=O)c1sccc1NS(=O)(=O)c1cc(-c2ccccc2CN2CCC(C(=O)O)CC2)cc2c1OCC2)C(=O)O"
  pIC50: 8.15
- Compound structure string: "Cc1cc(CNCc2cccc(-c3cc4c(c(S(=O)(=O)Nc5ccsc5C(=O)N[C@@H](CCCNC(=N)N)C(=O)O)c3)OCC4)c2)no1"
  pIC50: 7.27
